Listing of recorded MIC by entry.
# Tested on: Bacillus subtilis
# test details: Antimicrobial activity against Bacillus subtilis NICM 2063 assessed as growth inhibition by two fold serial dilution method
# Type: functional
Give just the numeric value; µg/mL need not be written.

Below, 2 compounds whose answers are already recorded.
Cc1nn(-c2ccc(-c3nnc(S)o3)cc2)c(=O)n1/N=C/c1ccccc1Br = 75
CN[C@@H]1[C@H](O[C@H]2[C@H](O[C@H]3[C@H](O)[C@@H](O)[C@H](N=C(N)N)[C@@H](O)[C@@H]3N=C(N)N)O[C@@H](C)[C@]2(O)C=O)O[C@@H](CO)[C@H](O)[C@H]1O = 6.25

Now look at this one.
Q. Give Bacillus subtilis MIC for `Cc1nn(-c2ccc(-c3nnc(S)o3)cc2)c(=O)n1/N=C/c1ccc(F)cc1`
A. 75

---

# Test system: Bacillus subtilis
# test details: Antimicrobial activity against Bacillus subtilis NICM 2063 assessed as growth inhibition by two fold serial dilution method
# Assay type: functional
Below, each entry is listed with its recorded MIC.
Record the result as number plus unit.

A selection of reference data follows.
CSc1nnc(-c2ccc(-n3nc(C)n(N)c3=O)cc2)o1 = 150 µg/mL
Cc1nn(-c2ccc(-c3nnc(S)o3)cc2)c(=O)n1N = 37.5 µg/mL
Cc1nn(-c2ccc(-c3nnc(S)n3N)cc2)c(=O)n1N = 18.8 µg/mL

Q. Please tell me: MIC of `Cc1nn(-c2ccc(-c3nnc(S)o3)cc2)c(=O)n1/N=C/c1cccc(F)c1` , system Bacillus subtilis?
A. 18.8 µg/mL

Q. Then this compound: `CCOC(=O)CSc1nnc(-c2ccc(-n3nc(C)n(N)c3=O)cc2)o1`
A. 37.5 µg/mL

Q. Similarly, `Cc1nn(-c2ccc(-c3nnc(S)o3)cc2)c(=O)n1/N=C/c1ccco1` ?
A. 150 µg/mL

Q. Then `Cc1nn(-c2ccc(-c3nnc(S)o3)cc2)c(=O)n1/N=C/c1ccccc1F` ?
A. 75 µg/mL

---

Each item that follows carries a reported MIC.
# Test system: Rhizopus arrhizus
# test details: Antimicrobial activity against Rhizopus oryzae NICM 997 assessed as growth inhibition by two-fold serial dilution method
# Assay type: functional
Entry rule: numbers only, all in µg/mL.

Completed entries (count: 5):
CCOC(=O)CSc1nnc(-c2ccc(-n3nc(C)n(N)c3=O)cc2)o1 = 150
Cc1nn(-c2ccc(-c3nnc(S)n3N)cc2)c(=O)n1N = 18.8
CSc1nnc(-c2ccc(-n3nc(C)n(N)c3=O)cc2)o1 = 37.5
Cc1nn(-c2ccc(-c3nnc(S)o3)cc2)c(=O)n1/N=C/c1ccco1 = 150
Cc1nn(-c2ccc(-c3nnc(S)o3)cc2)c(=O)n1/N=C/c1cccc(F)c1 = 150

Q. What MIC appears in the records for this compound with Rhizopus arrhizus? `Cc1nn(-c2ccc(-c3nnc(S)o3)cc2)c(=O)n1N`
A. 75

Q. Now try `Cc1nn(-c2ccc(-c3nnc(S)o3)cc2)c(=O)n1/N=C/c1ccc(F)cc1` .
A. 75

---

Catalogue of compounds with associated MIC
# Test system: Bacillus subtilis
# test details: Antimicrobial activity against Bacillus subtilis NICM 2063 assessed as growth inhibition by two fold serial dilution method
# Format: functional
Answer format: numeric, µg/mL implied, no suffix.

Cc1nn(-c2ccc(-c3nnc(S)o3)cc2)c(=O)n1/N=C/c1cscn1 = 37.5
Cc1nn(-c2ccc(-c3nnc(S)o3)cc2)c(=O)n1/N=C/c1cc(F)ccc1F = 37.5

Please examine the following record next.
Q. Param readout= MIC; system= Bacillus subtilis; entry= CC1(C)S[C@@H]2[C@H](NC(=O)Cc3ccccc3)C(=O)N2[C@H]1C(=O)O [PENICILLIN G] ; returns value.
A. 1.53
